TEST_SYSTEM: hAM2 receptor (CALCRL:RAMP3) (Homo sapiens, UniProt O60896+Q16602)
Construct: expressed in transfected cells; host or cells: GeneBLAzer CALCRL:RAMP3-CRE-bla Freestyle 293F
Sequence (Q16602 23-461): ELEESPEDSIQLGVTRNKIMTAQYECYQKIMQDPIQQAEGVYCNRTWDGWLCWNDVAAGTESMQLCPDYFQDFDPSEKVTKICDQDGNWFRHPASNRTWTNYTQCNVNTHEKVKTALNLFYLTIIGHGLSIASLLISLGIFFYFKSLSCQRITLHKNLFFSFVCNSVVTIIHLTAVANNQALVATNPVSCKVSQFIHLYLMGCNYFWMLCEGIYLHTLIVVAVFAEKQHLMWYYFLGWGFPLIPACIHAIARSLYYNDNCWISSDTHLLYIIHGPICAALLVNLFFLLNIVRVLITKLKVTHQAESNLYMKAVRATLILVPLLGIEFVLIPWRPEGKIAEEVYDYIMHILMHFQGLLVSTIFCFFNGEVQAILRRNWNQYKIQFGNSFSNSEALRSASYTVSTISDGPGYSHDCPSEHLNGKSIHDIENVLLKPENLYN
Sequence (O60896 24-148): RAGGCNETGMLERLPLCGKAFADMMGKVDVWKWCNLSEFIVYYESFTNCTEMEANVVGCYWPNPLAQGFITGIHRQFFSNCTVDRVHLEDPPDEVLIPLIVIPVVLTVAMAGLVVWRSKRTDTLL
TEST_DESCRIPTION: AM2 receptor antagonist activity measured by cAMP assay (HTRF)
Type: cell-based
CONDITION_SUMMARY: GeneBLAzer CALCRL:RAMP3-CRE-bla Freestyle 293F cells; agonist human adrenomedullin; read-out: hAM2-R IC50 Ave
pIC50: −log10 of the molar value. Numbered stars: 1 amine (or outer) side, 2 acyl side, 3 side chain; on linkers, the order of the positions; unused ones are H or OH. Bridge positions count the residues as written; N and C are the ends. Square brackets hold non-standard residues; d marks the D form. Peptide text beside a SMILES is read from it. * marks the point of attachment. Phe(3-CH2NH2) = O=C([C@H](Cc1cccc(CN[*:3])c1)N[*:1])[*:2]; Phe(3-CONH2) = NC(=O)c1cccc(C[C@H](N)C(=O)O)c1; Phe(2-CONH2) = NC(=O)c1ccccc1C[C@H](N)C(=O)O; Orn(iPr) = CC(C)NCCC[C@H](N)C(=O)O; Oxazole2carbonyl = O=C(c1ncco1)*; 3Pal = N[C@@H](Cc1cccnc1)C(=O)O; Picolinoyl = O=C(c1ccccn1)*; ΔPro = O=C(O)[C@@H]1C=CCN1
Listed here are molecules together with their documented pIC50.

| MOLECULE | pIC50 |
| --- | --- |
| CC(C)NCCC[C@@H]1NC(=O)[C@@H](NC(=O)[C@H](Cc2ccccc2C(N)=O)NC(=O)[C@H](NC(=O)c2ccccn2)C(C)C)CSSC[C@@H](C(=O)N[C@@H](Cc2cccnc2)C(N)=O)NC(=O)[C@H](Cc2cccc(CN)c2)NC(=O)[C@@H]2C=CCN2C(=O)CNC(=O)[C@H](C(C)C)NC(=O)[C@H](CC(=O)O)NC1=O [Compound 54] (Picolinoyl-[dV][Phe(2-CONH2)]C[Orn(iPr)]DVG[ΔPro][Phe(3-CH2NH2)]C[3Pal]-NH2; disulfide 3-10) | 6.82 |
| CC(C)NCCC[C@@H]1NC(=O)[C@@H](NC(=O)[C@H](Cc2ccccc2C(N)=O)NC(=O)[C@H](NC(=O)c2ncco2)C(C)C)CSSC[C@@H](C(=O)N[C@@H](Cc2cccnc2)C(N)=O)NC(=O)[C@H](Cc2cccc(C(N)=O)c2)NC(=O)[C@@H]2C=CCN2C(=O)CNC(=O)[C@H](C(C)C)NC(=O)[C@H](CC(=O)O)NC1=O [Compound 65] (Oxazole2carbonyl-[dV][Phe(2-CONH2)]C[Orn(iPr)]DVG[ΔPro][Phe(3-CONH2)]C[3Pal]-NH2; disulfide 3-10) | 6.50 |
